Assay: Pilot food effect assessment of plasma pharmacokinetics
Details: human, plasma, oral, 4 mg, Tmax Fed, 4 mg BID, individual patients
quantity: Tmax
Please state the number and follow it with the unit.

Prompt line: Entry `O=C(NOC[C@H](O)CO)c1ccc(F)c(F)c1Nc1ccc(I)cc1F` : reported Tmax = ?
Response line: 6 h

---

Experiment: clinical
Conditions: human, plasma, oral, 4 mg
quantity: half-life (h)
Give bare numbers, in h.

Prompt line: Entry O=C(NOC[C@H](O)CO)c1ccc(F)c(F)c1Nc1ccc(I)cc1F [Compound 1] : reported half-life = ?
Response line: 7.6

---

Experiment: clinical
Details: human, plasma, oral, 15 mg
quantity: half-life
Please state the number and follow it with the unit.

Prompt line: Entry O=C(NOC[C@H](O)CO)c1ccc(F)c(F)c1Nc1ccc(I)cc1F [Compound 1] : reported half-life = ?
Response line: 12.6 h

---

Test: Pilot food effect assessment of plasma pharmacokinetics
Conditions: human, plasma, oral, 20 mg, Cmax Fasted, 20 mg BID, individual patients
quantity: Cmax (ng/mL)
Give bare numbers, in ng/mL.

Prompt line: Entry `O=C(NOC[C@H](O)CO)c1ccc(F)c(F)c1Nc1ccc(I)cc1F` : reported Cmax = ?
Response line: 839

---

Experiment: clinical
Conditions: human, plasma, oral
quantity: half-life

Prompt line: Entry `O=C(NOC[C@H](O)CO)c1ccc(F)c(F)c1Nc1ccc(I)cc1F` : reported half-life = ?
Response line: 5 to 14 h

---

Test: clinical
Details: human, plasma, oral, 15 mg
quantity: Cmax (ng/mL)
One number for each entry, in ng/mL.

Prompt line: Entry `O=C(NOC[C@H](O)CO)c1ccc(F)c(F)c1Nc1ccc(I)cc1F` : reported Cmax = ?
Response line: 706

---

Assay: clinical
Conditions: human, plasma, oral, 20 mg
quantity: concentration at 21 day (ng/mL)
One number for each entry, in ng/mL.

Prompt line: Entry O=C(NOC[C@H](O)CO)c1ccc(F)c(F)c1Nc1ccc(I)cc1F [Compound 1] : reported concentration at 21 day = ?
Response line: 440

---

Test: Pilot food effect assessment of plasma pharmacokinetics
Settings: human, plasma, oral, 2 mg, Tmax Fed, 2 mg BID, individual patients
quantity: Tmax (h)
Give bare numbers, in h.

Prompt line: Entry `O=C(NOC[C@H](O)CO)c1ccc(F)c(F)c1Nc1ccc(I)cc1F` : reported Tmax = ?
Response line: 6

---

Experiment: clinical
Settings: human, plasma, oral, 4 mg
quantity: AUC(0-t) (ng·h/mL)
Numbers only, in ng·h/mL.

Prompt line: Entry O=C(NOC[C@H](O)CO)c1ccc(F)c(F)c1Nc1ccc(I)cc1F [Compound 1] : reported AUC(0-t) = ?
Response line: 1580

---

Experiment: Pilot food effect assessment of plasma pharmacokinetics
Details: human, plasma, oral, 20 mg, Tmax Fasted, 20 mg BID, individual patients
quantity: Tmax

Prompt line: Entry `O=C(NOC[C@H](O)CO)c1ccc(F)c(F)c1Nc1ccc(I)cc1F` : reported Tmax = ?
Response line: 1 h

---

Experiment: clinical
Conditions: human, plasma, oral, 1 mg
quantity: Tmax (h)
One number for each entry, in h.

Prompt line: Entry `O=C(NOC[C@H](O)CO)c1ccc(F)c(F)c1Nc1ccc(I)cc1F` : reported Tmax = ?
Response line: 1

---

Test: Pilot food effect assessment of plasma pharmacokinetics
Conditions: human, plasma, oral, 15 mg, AUC(0-24) Fasted, 15 mg BID, individual patients
quantity: AUC(0-t) (ng·h/mL)
Numbers only, in ng·h/mL.

Prompt line: Entry `O=C(NOC[C@H](O)CO)c1ccc(F)c(F)c1Nc1ccc(I)cc1F` : reported AUC(0-t) = ?
Response line: 5460
